# METHOD: qHTS for Inhibitors of binding or entry into cells for Lassa Virus; further: nearly all actives have a fitted effect of over 50% in size
# EXPERIMENTAL_SETUP: Lassa virus pseudotype entry inhibition, cell reporter; series mostly up to 37.9 µM
The whole screen tested about 300,000 compounds, of which about 3,700 (1.2%) were called active. Inconclusive results (about 20%) are left out. The call rests on the fitted dose curve; tested in HEK293 cells. Shown is part of a subset that was picked to be rich in actives.
Field 'call' accepts true (1) = active, false (0) = inactive

Worked cases, answers included:
[
  {
    "COMPOUND": "C(=N\\Nc1ccc2ccccc2n1)/c1ccc2c(c1)OCO2",
    "ASSIGNED_CLASS": "true (1)"
  },
  {
    "COMPOUND": "N#CCN(C(=O)COC(=O)C1CC2CCCC(C1)C2=O)c1ccccc1 (stereo unspecified)",
    "ASSIGNED_CLASS": "false (0)"
  },
  {
    "COMPOUND": "O=C(NCCN1CCN(Cc2ccccc2)CC1)c1cc2c(=O)[nH]c3ccccc3c2s1",
    "ASSIGNED_CLASS": "false (0)"
  },
  {
    "COMPOUND": "c1ccc2c(c1)OC1OC2Oc2ccccc21",
    "ASSIGNED_CLASS": "false (0)"
  },
  {
    "COMPOUND": "COC(=O)Cc1nc2c(N)nc(N)nc2[nH]c1=O",
    "ASSIGNED_CLASS": "false (0)"
  },
  {
    "COMPOUND": "Cc1ccc(Br)c(NS(=O)(=O)c2cccc(C(=O)N3CCNC(=O)C3)c2)c1",
    "ASSIGNED_CLASS": "false (0)"
  },
  {
    "COMPOUND": "Fc1ccc2[nH]c3c(N4CCN(Cc5ccc6c(c5)OCO6)CC4)ncnc3c2c1",
    "ASSIGNED_CLASS": "true (1)"
  },
  {
    "COMPOUND": "COc1ccc(C(=O)Nc2ccccc2C(=O)N/N=C/c2ccccc2OC)cc1",
    "ASSIGNED_CLASS": "false (0)"
  },
  {
    "COMPOUND": "Cc1noc(C)c1/C=N/Nc1ccc2ccccc2n1",
    "ASSIGNED_CLASS": "false (0)"
  },
  {
    "COMPOUND": "CCOc1ccc(C(=O)Nc2cc(OC)ccc2OC)cc1",
    "ASSIGNED_CLASS": "false (0)"
  }
]

Turning now to a further compound:
Request: Please share the test call associated with O=C(CSc1nncs1)NC1CCCc2ccccc21 (stereo unspecified) .
Response: false (0)
